system: NCI/ADR-RES ovarian; test: NCI-60 one-dose screen, 48 h (100 = growth as untreated, 0 = no growth, -100 = all killed); conditions: 10 µM unless noted
This is part of a sample that, as a whole, favours compounds with a hit. Of some 83,000 tested, about 20% had one in any assay.

{"columns": ["compound", "unitTag", "growth"],
 "data": [
  ["COc1ccc(-n2nnnc2-c2cn[nH]c2C(F)(F)F)cc1", "%", 129],
  ["COc1cc2oc(-c3ccc(NC(=O)c4ccccc4)cc3)cc(=O)c2c(OC)c1OC", "%", 89.4],
  ["Cc1ccc(NCc2cn(-c3ccc(C(=O)O)cc3)nc2-c2ccc(C(=O)O)cc2)cc1", "%", 102],
  ["Cc1ccc(C(=O)Nc2ccc(CN3CCN(C)CC3)c(C(F)(F)F)c2)cc1C#Cc1cnc(N)c2ccc(F)cc12", "%", -52.4],
  ["CNc1ccc(Nc2ccc(S(=O)(=O)O)cc2)c2c1C(=O)c1ccccc1C2=O", "%", 108],
  ["CCCCCCCCCCCCCCCCCC(=O)Nc1ccc(O)cc1", "%", 95.4],
  ["CN1C(=O)C(=Cc2coc3ccc(Br)cc3c2=O)C(=O)N(C)C1=O", "%", 97.9],
  ["CCOc1nc(-c2ccccc2)cc2c(O)c(C(=O)N/N=C/c3ccccc3O)[nH]c(=O)c12", "%", 5.38],
  ["CC(=O)O.[In]", "%", 107],
  ["CC(O)c1cc[cH-]c1.[Fe+2].c1cc[cH-]c1 (centres undefined)", "%", 102],
  ["CCCCCCCCCC[N+](C)(C)C", "%", 94.4],
  ["COc1ccc(-c2nc(SCC(C)C)nc(Nc3ccc([N+](=O)[O-])cc3)c2C#N)cc1", "%", 101],
  ["COc1nc(OC)nc(-c2cc(-c3cc(OC)c(OC)c(OC)c3)no2)n1", "%", 98.9],
  ["COc1cc(OC)c(NC(=O)n2ncc3cc(Nc4ncnc5ccccc45)ccc32)cc1Cl", "%", 97.3]
]}

* * *

tested on: EKVX NSCLC; assay: NCI-60 one-dose screen, 48 h (100 = growth as untreated, 0 = no growth, -100 = all killed); conditions: 10 µM
The panel holds about 83,000 compounds, 20% with a hit somewhere; the sample as a whole holds those more often.
quantityName: growth (%)

{"columns": ["compound", "testedTarget", "quantityName", "reported"],
 "data": [
  ["COC(=O)C(Cc1cnc[nH]1)N1CC(=O)N2[C@@H](c3ccccc3)SC[C@H]2C1=O (stereo partly drawn)", "EKVX NSCLC", "growth", 101],
  ["COc1cc(-c2c3c(cn2CCN2CCCCC2)-c2oncc2CC3)cc(OC)c1OC", "EKVX NSCLC", "growth", 102],
  ["O=c1[nH]c(=S)[nH]c(O)c1/C=C1\\C=Nc2ccccc21", "EKVX NSCLC", "growth", 75.1]
]}

* * *

Tested on: BT-549 breast
Assay: NCI-60 one-dose screen, 48 h (100 = growth as untreated, 0 = no growth, -100 = all killed)
Settings: 10 µM unless noted
Method: Growth inhibition of the BT-549 human tumor cell line is measured as a screen for anti-cancer activity. Cells are grown in 96 well plates and exposed to the test compound for 48 hours. Compounds are tested at a single concentration, which is 10^-5 M for most compounds. The reported endpoint is percent growth (GI% or GIPRCNT), where numbers from 0 - 100% represent growth inhibition, and numbers from -100% - 0 represent cell death. For example, a value of 40 represents 60% growth inhibition. […]
Compounds without any hit were thinned out: in the full panel of roughly 83,000, 20% have a hit.
Classify as follows. Reported growth greater than or equal to 90%: yes (1). Reported growth below: no (0).

{"columns": ["compound", "cat"],
 "data": [
  ["O=C(N/N=C/c1cc(Cl)ccc1O)C(=O)N/N=C/c1cc(Cl)ccc1O", "no (0)"],
  ["COC(=O)CC(=O)C(=O)OC", "yes (1)"],
  ["O=C1N/C(=N\\c2nnc(-c3ccc(O)cc3)s2)S/C1=C\\c1ccccc1O", "yes (1)"],
  ["Cc1ccc(C(=O)C(Br)C(Br)c2ccccc2)cc1 (stereo not given)", "yes (1)"],
  ["CCOP1(=O)CC(C)=C(Cl)C(P(=O)(O)O)C1 (stereo not given)", "yes (1)"],
  ["CCc1c(C)c2ccc(OCC(=O)N=Nc3c(O)[nH]c4ccccc34)c(C)c2oc1=O", "no (0)"],
  ["CC(=O)c1cc(Nc2cc(C)nc(N)n2)cc(C(C)=O)c1", "yes (1)"],
  ["C=C(C)C(C(=O)OCC)(C(=O)OCC)C(C)C", "yes (1)"],
  ["Cn1c2ccccc2c2ccccc21", "yes (1)"],
  ["COc1ccc(Cn2cc3c(c2-c2ccc(OC)cc2)CCc2cnoc2-3)cc1", "no (0)"],
  ["COc1ccc(C(=O)CN2C(=O)NC(c3ccccc3)(c3ccccc3)C2=O)cc1", "yes (1)"],
  ["Cc1ccc(C(C)C)c(OCc2ccc(C(=O)N/N=C/c3cccc(O)c3O)cc2)c1", "no (0)"],
  ["C/C(=N\\Nc1ccc(Cl)cn1)c1ccc2ccccc2n1", "no (0)"],
  ["CCOC(=O)c1c(C)oc2ncnc(Nc3ccc(C(=O)NCCc4ccccc4)cc3)c12", "no (0)"],
  ["C=CCSc1nnc(COc2ccc3c(C)c(Cc4ccccc4)c(=O)oc3c2C)o1", "yes (1)"],
  ["CCOC(=O)C1C(=O)C(=O)N(C(C)C)C1C(=O)OCC (stereo not given)", "yes (1)"],
  ["CCCCCCC(=O)C(C)C", "yes (1)"],
  ["CCCCCC(=C/c1ccccc1)/C=N/N=C(N)N", "no (0)"],
  ["CCn1cc(C(=O)O)c(=O)c2cc(F)c(N3CCN(S(=O)(=O)c4ccc(Cl)cc4)CC3)cc21", "no (0)"],
  ["Cc1ccc2c(c1)C(=O)CCS2", "yes (1)"],
  ["CC(=O)OCC(=O)[C@@]1(O)[C@H](C)C[C@H]2[C@@H]3C=C(C)C4=Cc5c(cnn5-c5ccc(F)cc5)C[C@]4(C)[C@H]3[C@@H](O)C[C@@]21C", "no (0)"],
  ["C=CCC(CCC(CC=C)C(=O)OCC)C(=O)OCC (stereo not given)", "yes (1)"],
  ["OCC(O)C(O)CC1SCCS1 (stereo not given)", "yes (1)"],
  ["CCCCCCCCCCN1CC2CCCCC2C1 (stereo not given)", "no (0)"],
  ["O=C(/C=C/c1ccc(Cl)cc1)c1ccc(Cl)cc1", "yes (1)"],
  ["COC(=O)c1cc(=O)nc(N/N=C/c2ccccc2O)s1", "yes (1)"],
  ["C=CCNC(=S)NNc1ccc([N+](=O)[O-])cn1", "yes (1)"],
  ["CCN(CC)CCCNc1c2ccc(Cl)cc2nc2ccc(OC)cc12", "no (0)"],
  ["COC(=O)c1ccc2[nH]c(O)c(C(=Nc3ccc(N(C)C(=O)CN4CCN(C)CC4)cc3)c3ccc(N)cc3)c2c1", "no (0)"],
  ["CCC(CCCN1C(=O)c2ccccc2C1=O)Nc1cc(OC)cc2c(C)ccnc12 (stereo not given)", "no (0)"],
  ["COC(=O)/C=C/c1cc(O)c2oc(-c3ccc(O)c(O)c3)c(C(=O)OC)c2c1", "no (0)"],
  ["O=C(Nc1cccc(Cn2c(=O)[nH]c3ccc(Oc4ncccn4)cc3c2=O)c1)c1ccc(Cl)cc1", "no (0)"],
  ["CN1C(=O)C(=Cc2coc3ccc(Br)cc3c2=O)C(=O)N(C)C1=O", "yes (1)"],
  ["Cc1ccc(S(=O)(=O)NC(CCC(=O)Nc2ccccc2)C(=O)Nc2ccccc2)cc1 (stereo not given)", "no (0)"],
  ["O=C1C(Cl)=C(Nc2ccc(Nc3ccccc3)c(NC3=C(Cl)C(=O)c4ccccc4C3=O)c2)C(=O)c2ccccc21", "no (0)"]
]}

* * *

Measured growth of individual entries
system: HCC-2998 colon; assay: NCI-60 one-dose screen, 48 h (100 = growth as untreated, 0 = no growth, -100 = all killed); conditions: 10 µM unless noted
Compounds without any hit were thinned out: in the full panel of roughly 83,000, 20% have a hit. Active and inactive are the calls of the source. How the source made its calls: active means growth percent below 10; inactive means the rest.
quantityName: growth

{"columns": ["smilesEntry", "testedTarget", "quantityName", "reported"],
 "data": [
  ["COc1ccc(CNCCCN2C(=O)c3ccc4c5c(ccc(c35)C2=O)C(=O)N(CCCNCc2ccc(OC)c(OC)c2OC)C4=O)c(OC)c1OC", "HCC-2998 colon", "growth", "-92.8% (active)"],
  ["Nc1ccc(S(=O)(=O)c2ccc(NO)cc2)cc1", "HCC-2998 colon", "growth", "92.6% (inactive)"],
  ["COc1ccc(-c2nc(N)n(C(=S)Nc3ccccc3)n2)cc1", "HCC-2998 colon", "growth", "107% (inactive)"]
]}
